protocol: mitochondrial membrane potential change in A549 cells, profiling panel, cell-based, JC-1 fluorescence, basal, 24 h, 100 nL (AID 1138);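 further: A549 lung adenocarcinoma cells under basal conditions with no added stimulus; test concentration not given here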
cond: higher = more signal
Items are presented alongside their recorded z-score.
measurementName: z-score

- O=C(O)[C@H]1C[C@H]2C(=O)N3CCC[C@H]3C(=O)N2[C@H]1c1cccc(OCCO)c1: 1.95
- Cc1ccc(S[C@]2(C(=O)O)CC(=O)N(Cc3ccccc3Cl)[C@@H]2c2ccc(CO)cc2)cc1: -0.939
- O=C1O[C@@H](c2ccccc2)[C@@H](c2ccccc2)N2[C@@H](c3ccccc3OCCO)[C@]3(C(=O)Nc4ccccc43)[C@@H](C(=O)NC[C@H](O)c3ccccc3)[C@H]12: 0.171
- Cc1ccc(S[C@]2(C(=O)NC(C)C)CC(=O)N(Cc3ccccc3C(F)(F)F)[C@@H]2c2ccc(CO)cc2I)cc1: -0.279
- O=C(O)[C@H](Cc1ccccc1)n1cc(-c2ccccn2)nn1: -0.47
- C[C@H]1C2=C3C(CC[C@H]4C(OCc5ccc(F)cc5C(F)(F)F)OC[C@](C)([C@@H]34)N(C(=O)OC(C)(C)C)C2)C2COC(=O)OCC21 (some centres undefined): 1.75
- C=CCNC(=O)[C@@H]1[C@H]2C(=O)O[C@H](c3ccccc3)[C@H](c3ccccc3)N2[C@H](c2ccccc2OCCO)[C@@]12C(=O)N(C(=O)OCCOC)c1ccc(C#CC3=CCCCC3)cc12: -0.663
- CON(C)C(=O)C=C1C[C@@H](c2cccc(Cl)c2)O[C@@H](c2cccc(Cl)c2)O1: 3.69
- COc1ccc(NC(=O)O[C@H]2[C@H](OC(=O)Nc3ccc4c(c3)OCO4)[C@@H](OC(=O)Nc3ccc4c(c3)OCO4)[C@@H](OC)O[C@@H]2CO)cc1: -0.669
- C=C(/C(=C/C[C@@H](OC(=O)c1ccncc1)c1ccc(OCCO)cc1)c1cc(C(=O)OC)ccc1OC)C(C)C: 0.628
- C=CC[C@@]1(C(=O)O)N=C(c2ccc(OCCCO)cc2)O[C@@H]1c1ccccc1: 0.959
- O=C1O[C@@H](c2ccccc2)[C@@H](c2ccccc2)N2[C@@H](c3ccccc3OCCO)[C@]3(C(=O)Nc4ccc(C#CCCO)cc43)[C@@H](C(=O)Nc3nc4ccccc4s3)[C@H]12: -2.04
- C=CCOC(=O)[C@@H]1[C@H]2C(=O)O[C@H](c3ccccc3)[C@H](c3ccccc3)N2[C@H](c2ccc(OCCOC(=O)[C@H]3C[C@H]4C(=O)N[C@@H](CC(C)C)C(=O)N4[C@H]3c3ccc(O)cc3)cc2)[C@@]12C(=O)Nc1ccc(I)cc12: -0.176
- O=C(NC1CC1)[C@@H]1c2ccccc2C(=O)N(Cc2ccccc2)[C@H]1c1ccc(CO)cc1: 2.09

Data provenance is PubChem BioAssay.
